Parameter activation: see the listing below.
- system_under_test: Sphingosine 1-phosphate receptor 4 (Homo sapiens) (UniProt O95977)
- Sequence (O95977 whole entry, looked up): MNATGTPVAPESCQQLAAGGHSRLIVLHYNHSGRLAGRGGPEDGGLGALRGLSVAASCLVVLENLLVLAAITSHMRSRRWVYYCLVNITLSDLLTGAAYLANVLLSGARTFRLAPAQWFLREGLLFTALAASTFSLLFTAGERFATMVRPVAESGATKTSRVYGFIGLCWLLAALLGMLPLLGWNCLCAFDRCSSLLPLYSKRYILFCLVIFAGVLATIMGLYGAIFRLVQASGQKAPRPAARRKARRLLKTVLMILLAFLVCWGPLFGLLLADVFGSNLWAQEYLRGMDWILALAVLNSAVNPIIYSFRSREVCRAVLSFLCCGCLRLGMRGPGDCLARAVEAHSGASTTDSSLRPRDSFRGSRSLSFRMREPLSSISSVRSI
- protocol: activators of human S1P4 signalling – cell-based, high throughput, confirmation (AID 1523);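 also: 0% = vehicle and 100% = full reference agonist response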
- details: S1P4 agonist cell-based reporter assay; at 4.98 µM; active compounds read high
The list shows a part of the results.
// units = %; emit number, no label

Check out these entries, answers already filled in.
input: Give its activation value. Item: O=C(COC(=O)c1cc([N+](=O)[O-])ccc1NCc1ccccc1)NC1CCCCC1
output: -2.43

input: Name the reported activation value associated with the compound CC(Oc1ccc(Br)cc1Br)C(=O)NC1CCCC1 (centres undefined)
output: -1.69

More entries:
input: Consider the compound CC(C)C(c1nnnn1C(C)(C)C)N1CCN(Cc2cccnc2)CC1 (centres undefined) and give its measured activation.
output: -2.62

input: Requested read-out: activation. Entry: Cc1noc(C)c1COC(=O)COc1ccc(-c2ccccc2)cc1
output: -2.48

---

- system_under_test: Sphingosine 1-phosphate receptor 4 (Homo sapiens)
- protocol: activators of human S1P4 signalling – cell-based, high throughput, confirmation (AID 1523);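 also: 0% = vehicle and 100% = full reference agonist response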
- details: S1P4 agonist cell-based reporter assay; at 4.98 µM; active compounds read high
Some of the results follow. Non-standard residues stand in square brackets, D forms with d. Residues, ends and D or L forms follow the SMILES beside them. ξ: configuration not given here. ξM = CSCCC(N)C(=O)O
measurement_name: activation (%)
Value expressed in %; do not type the unit.

Field: example entries. Status: answers known.
input: Item Cc1cc(C)nc(N(C#N)CC(=O)Nc2ccccc2)n1 has what recorded activation?
output: -0.69

input: Given the entry CC1CCCC(NC(=O)COC(=O)[C@@H]2CC(O)CN2S(=O)(=O)c2ccc3c(c2)OCCO3)C1C (stereo not given in full) , report its measured activation.
output: -1.06

input: Record request: activation value, item COc1ccc(-n2c(C)cc(C(=O)CN3C(=O)NC4(CCc5ccccc54)C3=O)c2C)cc1 (stereo not given)
output: -1.26

---
input: Which activation is listed for COC(=O)CNC(=O)C(CCSC)NC(C)=O (stereo not given) (Ac-[ξM]-Gly-OMe) ?
output: -1.87

input: Can you share its activation? I mean this compound: CCOc1ccc(-c2nnc(-c3ccco3)o2)cc1
output: -1

---

- system_under_test: Sphingosine 1-phosphate receptor 4 (Homo sapiens) (UniProt O95977)
- protocol: activators of human S1P4 signalling – cell-based, high throughput, confirmation (AID 1523);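 also: 0% = vehicle and 100% = full reference agonist response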
- details: S1P4 agonist cell-based reporter assay; at 4.98 µM; active compounds read high
This is one part of the list.
measurement_name: activation (%)
Please respond with the number in % and leave the unit unwritten.

input: // returns reported activation for input Cc1ccc(NC(=O)Nc2ccccc2)c(Br)c1
output: -1.05

Others:
input: Field request: activation | item: COc1ccc(C2CC(c3cccs3)=NN2c2ccccc2)cc1 (stereo unspecified)
output: 23.1

input: GET /values?readout=activation&item= CCn1c(CNC(=O)c2ccc(OC)c(OC)c2)nnc1SCC(=O)Nc1ccccc1
output: -2.38

input: Consider the compound shown here: CCC(C)NC(=O)C1c2ccccc2Oc2ccccc21 (stereo unspecified) What is its recorded activation?
output: 0.12

---

Recorded activation for the following compounds
- system_under_test: Sphingosine 1-phosphate receptor 4 (Homo sapiens) (UniProt O95977)
- protocol: activators of human S1P4 signalling – cell-based, high throughput, confirmation (AID 1523);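 also: 0% = vehicle and 100% = full reference agonist response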
- details: S1P4 agonist cell-based reporter assay; at 4.98 µM; active compounds read high
Some of the results follow.
Expressed in %, but write only the number.

Solved cases below.
input: # lookup: activation of N/C(=N\OC(=O)Cc1ccc([N+](=O)[O-])cc1)c1ccccn1
output: -3.04

input: What measured activation goes with CCC(=O)/C(=C(/O)c1ccccc1)c1nc2ccccc2[nH]1 ?
output: -1.45

input: Report activation for C=CCn1c(SCn2nnc3ccccc3c2=O)nnc1-c1ccc(Cl)cc1 please.
output: -1.29

input: Give the measured activation of COc1ccc(N2C(=O)C(Cc3ccccc3)NC2=S)cc1 (configuration not stated) .
output: -1.44

input: Would you kindly share the measured activation for O=[N+]([O-])c1cccc(Nc2c3ccccc3nc3ccccc23)c1 ?
output: 6.3

input: Bench note: what activation did O=C(COC(=O)Cc1ccc(F)cc1)Nc1cc(S(=O)(=O)N2CCOCC2)ccc1N1CCCC1 show?
output: -0.73

Lab note: next compound to report on.
input: Suppose we examine the compound O=C(CSc1nncn1-c1cccnc1)N1CCOCC1 ; what activation value has been reported?
output: -1.73
